The measurements presented in this section are drawn from paper PMC9090415.

Below, each entry is listed with its recorded % inhibition apPOL 180'.
biological target: P. falciparum apicoplast DNA polymerase (Pf-apPOL) (Plasmodium falciparum, UniProt Q8ILY1); test: Fluorescence-based high-throughput DNA polymerase assay (molecular beacon), primary screen and dose-response; assay type: biochemical; details: DRC-1; 180'; concentration 2.5;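 on % inhibition apPOL 180': test concentration in µM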
Sequence (Q8ILY1 entry or part of it): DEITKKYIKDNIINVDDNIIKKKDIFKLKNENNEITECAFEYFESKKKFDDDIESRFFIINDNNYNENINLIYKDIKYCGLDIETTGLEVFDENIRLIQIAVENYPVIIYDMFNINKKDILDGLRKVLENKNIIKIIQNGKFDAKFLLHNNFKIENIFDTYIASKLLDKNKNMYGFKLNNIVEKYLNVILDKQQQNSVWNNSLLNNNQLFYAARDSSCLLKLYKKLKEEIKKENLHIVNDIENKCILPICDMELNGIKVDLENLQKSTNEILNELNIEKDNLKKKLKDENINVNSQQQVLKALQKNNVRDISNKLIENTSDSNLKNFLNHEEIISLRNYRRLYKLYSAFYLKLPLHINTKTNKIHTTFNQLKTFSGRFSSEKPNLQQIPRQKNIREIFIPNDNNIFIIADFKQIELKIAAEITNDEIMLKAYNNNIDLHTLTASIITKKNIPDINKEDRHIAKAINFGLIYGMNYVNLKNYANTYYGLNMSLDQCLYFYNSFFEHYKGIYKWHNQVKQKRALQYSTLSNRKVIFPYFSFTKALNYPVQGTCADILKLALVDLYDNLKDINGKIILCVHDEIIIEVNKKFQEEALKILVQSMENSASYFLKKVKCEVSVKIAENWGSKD
measureName: % inhibition apPOL 180' (%)

>>> reportedvalue("Cc1nc(/N=N/c2ccc(C(=O)[O-])cc2)c(COP(=O)([O-])[O-])c(C=O)c1O.[Na+].[Na+].[Na+]")
26.3863
>>> reportedvalue("COc1ccc2c(c1)CCc1c-2nc2ccc(Br)cc2c1C(=O)O")
3.289
>>> reportedvalue("Cc1cc(C)c(O)c(/N=C/c2cc([N+](=O)[O-])cc(Br)c2O)c1")
-11.4225
>>> reportedvalue("CCOC(=O)C1=C2c3cc(OC)c(OC)cc3CC(C)(C)N2C(=O)C1=O")
2.939
>>> reportedvalue("CCSc1nnc(NC(=O)Cc2csc(NC(=O)c3cnccn3)n2)s1")
-15.2579
>>> reportedvalue("CO/N=C(\\C(=O)N[C@@H]1C(=O)N2C(C(=O)[O-])=C(CSc3nc(=O)c([O-])nn3C)CSC12)c1csc(N)n1.[Na+].[Na+] (some centres unmarked)")
-15.6799
>>> reportedvalue("Cc1ccc(NC(=O)C2CCN(C(=O)c3cc4ccsc4[nH]3)CC2)c(Br)c1")
5
>>> reportedvalue("Cn1nc(C(=O)N2CCc3c(nc4cc(-c5ccccc5)[nH]n4c3=O)C2)c2ccccc21")
-3.8
>>> reportedvalue("Cc1ccc(NC(=O)Cn2ccc3c(=O)[nH]ccc32)cc1F [Molecule 48, O=C(Cn1ccc2c1cc[nH]c2=O)Nc1ccc(c(c1)F)C]")
-5.068
>>> reportedvalue("COc1ccc(NC(=O)Cn2ccc3c(=O)[nH]ccc32)cc1 [Molecule 13, COc1ccc(cc1)NC(=O)Cn1ccc2c1cc[nH]c2=O]")
-3.687
>>> reportedvalue("O=C(O)C(=O)Nc1nc(-c2ccc3c(c2)OCCO3)cs1")
0.4032
>>> reportedvalue("CC(=O)c1cc2c(N)c(/C(N)=N/C#N)sc2nc1C")
-1.629
>>> reportedvalue("O=C(O)c1c(F)c(F)c(-c2c(F)c(F)c(C(=O)O)c(F)c2F)c(F)c1F")
-2.039
>>> reportedvalue("COc1ccc(C=C2Oc3c(ccc4c3CN(c3ccc5c(c3)OCO5)CO4)C2=O)cc1OC")
14.753

====

List of % inhibition Apo pol 10' values.
biological target: P. falciparum apicoplast DNA polymerase (Pf-apPOL) (Plasmodium falciparum); assay: Fluorescence-based high-throughput DNA polymerase assay (molecular beacon), primary screen and dose-response; format: biochemical; conditions: DRC-1; 10'; concentration 2.5
measureName: % inhibition Apo pol 10' (%)

>>> reportedvalue("Cc1ccc(C)c(CSc2nc(C3CCCCC3)c(C#N)c(=O)[nH]2)c1")
19.6577
>>> reportedvalue("O=C(O)C(=O)Nc1nc(-c2ccc3c(c2)OCCO3)cs1")
23.4738
>>> reportedvalue("O=C(NNC(=O)c1ccc(Cl)cc1)C(=O)NNC(=O)c1ccc(Cl)cc1")
0.1123
>>> reportedvalue("CN(C)C=CC(=O)c1ccccn1")
5.279
>>> reportedvalue("O=C(Nc1c2c(nn1-c1ccc(Oc3ccccc3)cc1)CSC2)c1ccco1")
13.8958
>>> reportedvalue("COc1ccc(-c2cc3nc4c(c(=O)n3[nH]2)CCN(C(=O)CCc2ccccc2)C4)cc1")
3
>>> reportedvalue("O=C(c1c[nH]c2ncccc12)N1CCCC1 [Molecule 63, O=C(c1c[nH]c2c1cccn2)N1CCCC1]")
5.209
>>> reportedvalue("Cc1cc(C)c2c(O)nc(SCC(=O)c3ccc(O)c(O)c3)nc2n1")
66.1048
>>> reportedvalue("CCCCc1ccc(NC(=O)CSc2nc(O)c(C#N)c(C3CCCCC3)n2)c(C)c1")
-1.955

====

target: UniProtKB Q8ILY1; experiment: Fluorescence-based high-throughput DNA polymerase assay (molecular beacon), primary screen and dose-response; format: biochemical; settings: DRC-1; read at 10'; concentration 5
measureName: % inhibition Apo pol 10' 5

>>> reportedvalue("COc1ccccc1CC(=O)N1CCc2c(nc3cc(-c4ccccc4Cl)[nH]n3c2=O)C1")
"17%"
>>> reportedvalue("COc1ccc(/C=C/c2cc(C(=O)O)c3ccccc3n2)cc1")
"53.3879%"
>>> reportedvalue("Cn1nc(-c2nnc(-c3ccccc3F)o2)c2c1CCN(C(=O)c1ccccc1Cl)C2")
"44%"
>>> reportedvalue("Cc1ccsc1Cn1c(C)ccc1C")
"5.431%"

====

target: P. falciparum apicoplast DNA polymerase (Pf-apPOL) (Plasmodium falciparum); assay: Fluorescence-based high-throughput DNA polymerase assay (molecular beacon), primary screen and dose-response; format: biochemical; conditions: DRC-1; 180'; concentration 80
measureName: % inhibition apPOL 180' (%)

>>> reportedvalue("N#CC(=NNc1cc(C(F)(F)F)cc(C(F)(F)F)c1)C(=O)c1ccco1")
71.4519
>>> reportedvalue("COc1ccc(S(=O)(=O)/N=C2\\NC(=O)/C(=C3\\C(=O)Nc4ccc([N+](=O)[O-])cc43)S2)cc1")
99.3305
>>> reportedvalue("O=C(Nc1cccc(Cl)c1)Nc1nnc(-c2ccncc2)s1")
84.4697
>>> reportedvalue("O=C1NCCCn2cc(S(=O)(=O)Nc3ccccc3)cc21")
83.4683
>>> reportedvalue("Cc1cccc(-c2nnc3ccc(NS(=O)(=O)c4ccc(C)c(C)c4)nn23)c1")
87.5255
>>> reportedvalue("Cc1cc(C)cc(-n2nc3c(c2NC(=O)c2ccco2)CSC3)c1")
84.9587
>>> reportedvalue("O=C(Nc1nnc(-c2ccno2)o1)c1ccc2c(c1)OCO2")
37.6873
>>> reportedvalue("COc1ccc(NC(=O)Cn2ccc3c(=O)[nH]ccc32)cc1 [Molecule 13, COc1ccc(cc1)NC(=O)Cn1ccc2c1cc[nH]c2=O]")
83.4711
>>> reportedvalue("COc1cc(Cl)c(C)cc1NC(=O)Cn1ccc2c(=O)[nH]ccc21")
83.9917
>>> reportedvalue("Cc1ccc(C(=O)/C=C/C=C/C=C/N(C)C)o1")
73.043
>>> reportedvalue("Cc1ccc(NC(=O)C2CCN(C(=O)c3cc4ccsc4[nH]3)CC2)c(Br)c1")
75
>>> reportedvalue("COc1ccccc1CCC(=O)N1CCc2c(nc3cc(-c4ccccc4)[nH]n3c2=O)C1")
49
>>> reportedvalue("CCSc1nnc(NC(=O)Cc2csc(NC(=O)c3cnccn3)n2)s1")
42.542
>>> reportedvalue("Cc1nc(/N=N/c2ccc(C(=O)[O-])cc2)c(COP(=O)([O-])[O-])c(C=O)c1O.[Na+].[Na+].[Na+]")
68.3493
>>> reportedvalue("CN(C)S(=O)(=O)Oc1ccc(-c2noc(-c3ccc(Oc4cc(Cl)cc(Cl)c4)o3)n2)cc1")
76.7438
>>> reportedvalue("O=C(O)CCS(=O)(=O)c1ccc(-c2ccc(S(=O)(=O)CCC(=O)O)cc2)cc1")
73.8924
>>> reportedvalue("COc1ccc(-c2n[nH]cc2Oc2ccc(Cl)cc2)c(O)c1")
78.7822
>>> reportedvalue("CCC(C)NC(=O)c1cc(NC(C)=O)cc2nc(C)ccc12 (stereo not drawn)")
66.384
>>> reportedvalue("CN1CC(=Cc2ccco2)C(=O)C(=Cc2ccco2)C1")
50.1748
>>> reportedvalue("CO/N=C(\\C(=O)N[C@@H]1C(=O)N2C(C(=O)[O-])=C(CSc3nc(=O)c([O-])nn3C)CSC12)c1csc(N)n1.[Na+].[Na+] (stereo partly drawn)")
28.4912
>>> reportedvalue("CCOC(=O)C1=C2c3cc(OC)c(OC)cc3CC(C)(C)N2C(=O)C1=O")
76.7403
>>> reportedvalue("N#Cc1c(C2CCCCC2)nc(Sc2ccc(C(F)(F)F)cc2[N+](=O)[O-])[nH]c1=O")
98.1002
>>> reportedvalue("Cc1ccc(C)c(CSc2nc(C3CCCCC3)c(C#N)c(=O)[nH]2)c1")
97.5591
>>> reportedvalue("CC(=O)c1cc2c(N)c(/C(N)=N/C#N)sc2nc1C")
70.7811
>>> reportedvalue("O=C1N/C(=N/c2ccccc2Cl)S/C1=C/c1ccc([N+](=O)[O-])o1")
81.189
>>> reportedvalue("O=[N+]([O-])/C=C/c1ccc(-c2ccc(Br)cc2)o1")
81.6814
>>> reportedvalue("NS(=O)(=O)c1ccc(NC(=O)c2ccc(N3C(=O)CCC3=O)cc2)cc1")
79.9389

====

Biological target: P. falciparum apicoplast DNA polymerase (Pf-apPOL) (Plasmodium falciparum, UniProt Q8ILY1)
Experiment: Fluorescence-based high-throughput DNA polymerase assay (molecular beacon), primary screen and dose-response
Format: biochemical
Settings: DRC-1; 10'; conc 20
From the text: The HT assay employs a molecular beacon, a stem-loop DNA template with a Cy3 dye and the Black Hole Quencher on the 3′ and 5′ ends of the DNA, respectively. Pf-apPOL concentration is based on a calculated absorptivity of ε280 = 56750 M^−1 cm^−1. […] To identify apPOL inhibitors we utilised our previously developed high-throughput DNA polymerase assay. […] The assay accurately recapitulates the kinetic behaviour of apPOL, as measured through more conventional low-throughput gel-based assays. […]
Each entry gets label 0 if its % inhibition Apo pol 10' stays under 90%, and label 1 if its % inhibition Apo pol 10' is 90% or above.

>>> classassignment("Cc1cccc(NC(=O)Cn2ccc3c(=O)[nH]ccc32)c1C [Molecule 11, O=C(Cn1ccc2c1cc[nH]c2=O)Nc1cccc(c1C)C]")
"label 0"
>>> classassignment("C=CC1=C(C)c2cc3[nH]c(cc4nc(cc5[nH]c(cc1n2)c(C)c5CCC(=O)O)C(CCC(=O)O)=C4C)c(C)c3C=C [Molecule 91]")
"label 1"
>>> classassignment("O=c1nc(/C=C/c2ccc(Br)cc2)oc2ccccc12 [KU0052629]")
"label 0"
>>> classassignment("O=C1NN(c2ccc(Cl)c(Cl)c2)C(=O)/C1=C/c1ccc(-c2ccc3c(c2)C(=O)OC3)o1 [Molecule 90]")
"label 1"
